Origin of the recorded values: patent US20230391772A1

biological target: HSP90a protein (Homo sapiens); construct: purchased BPS Bioscience 50298; test: HSP90α-binding fluorescent polarization (FP) assay, FITC-geldanamycin probe; conditions: FP competition with FITC-geldanamycin, 5 nM, 120 min at 25° C.
pIC50: −log10 of the molar value.

{"smiles_structure": "CC(C)c1cc(-c2nnc(O)n2-c2ccc(CN3CCC(C(=O)N4CC[C@@H](COc5nc6c(c(N7CCN(C(N)=O)[C@@H](CC#N)C7)n5)CCN(c5cccc7cccc(Cl)c57)C6)C4)CC3)cc2)c(O)cc1O", "study_system": "HSP90a protein (Homo sapiens)", "pIC50": "> 7.00"}
{"smiles_structure": "C=C(F)C(=O)N1CCN(c2nc(N3CCN(Cc4ccc(-n5c(O)nnc5-c5cc(CC)c(O)cc5O)cc4)CC3)nc3c2CCN(c2cccc4cccc(Cl)c24)C3)C[C@@H]1CC#N", "study_system": "HSP90a protein (Homo sapiens)", "pIC50": "< 6.00"}
{"smiles_structure": "CCC(=O)N1CCN(c2nc(NCCCNC(=O)C3CCN(Cc4ccc(-n5c(O)nnc5-c5cc(C(C)C)c(O)cc5O)cc4)CC3)nc3c2CCN(c2cccc4cccc(Cl)c24)C3)C[C@@H]1CC#N", "study_system": "HSP90a protein (Homo sapiens)", "pIC50": "6.00 to 7.00"}
{"smiles_structure": "CCC(=O)N1CCN(c2nc(N3CCC(CN4CCN(Cc5ccc(-n6c(O)nnc6-c6cc(CC)c(O)cc6O)cc5)CC4)CC3)nc3c2CCN(c2cccc4cccc(Cl)c24)C3)C[C@@H]1CC#N", "study_system": "HSP90a protein (Homo sapiens)", "pIC50": "6.00 to 7.00"}
